# TEST NAME: Drug metabolism in human liver microsomes incubated for 15 mins
# Assay type: ADME
# TEST CONTEXT: read-out: Drug metabolism
Response field label: string, one of class 1 (metabolised at 0.25 h strictly below 10%) or class 0.

> print(dat)
                               smiles.input  answer.label
1  CC(C)(C)c1ccc(NC(=O)N2Cc3ccc(S(=O)(=O)Nc4ccc(F)cc4)cc3C2)cc1       class 0
2  COc1ccc(NS(=O)(=O)c2ccc3c(c2)CN(C(=O)Nc2ccc(C(C)(C)C)cc2)C3)c(F)c1       class 0
3  COc1cc(F)ccc1NS(=O)(=O)c1ccc2c(c1)CN(C(=O)Nc1ccc(C(C)(C)C)cc1)C2       class 0
4  CCCCCOc1ccc(NS(=O)(=O)c2ccc3c(c2)CN(C(=O)Nc2ccc(C(C)(C)C)cc2)C3)c(F)c1       class 1
5  CC(C)(C)c1ccc(CCN2CCc3cc(S(=O)(=O)Nc4ccc(F)cc4)ccc3C2)cc1       class 0
